- target-of-assay: T1, Puf4 RNA-binding domain (Saccharomyces cerevisiae, UniProt P25339 537-888)
- T1 sequence: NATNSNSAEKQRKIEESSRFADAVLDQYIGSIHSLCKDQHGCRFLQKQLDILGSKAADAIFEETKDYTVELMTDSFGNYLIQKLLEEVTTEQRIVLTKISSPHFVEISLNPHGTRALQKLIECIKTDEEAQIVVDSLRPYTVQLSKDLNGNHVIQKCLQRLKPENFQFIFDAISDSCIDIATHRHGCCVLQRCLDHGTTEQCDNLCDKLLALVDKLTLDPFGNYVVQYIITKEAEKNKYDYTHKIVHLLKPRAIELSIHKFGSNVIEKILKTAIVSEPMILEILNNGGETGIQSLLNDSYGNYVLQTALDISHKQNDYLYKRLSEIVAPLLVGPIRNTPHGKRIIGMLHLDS
- test-name: EMSA kinetics (koff/kon); 25 C; kon 1.04e8 M-1s-1, koff 0.014 s-1; 20 mM HEPES-Na or HEPES-K pH 7.4, 2 mM MgCl2, 100 mM KOAc, 2 mM DTT, 0.2% Tween 20, 5% glycerol, 0.1 mg/ml BSA; 25 or 0 C; native 20% gel at 4-6 C
- experimental-conditions: protein: recombinant; tags: C-terminal SNAP tag; N-terminal 6xHis removed by TEV; label: 5'-32P; single strand
parameter-measured: Kd (nM)
Give bare numbers, in nM.

Give the measured Kd of AUGUGUAUAUUAGU (ssRNA) [Puf4_HO RNA] .
0.13
